// reported viability for each item listed
- assay explanation: ovarian cancer cell viability with rucaparib, profiling panel, oncology-focused library, rucaparib conditional (AID 1508598)
- test context: patient-derived ovarian cancer cells, CellTiter-Glo viability, 144 h; at 0.00488 µM; OCI-P5x cells; without rucaparib; active compounds read low
Quick reminder: number only, in %, skip the unit.

# smiles structure, readout name, observed
records = [
    ("Cc1ccc(-n2nc(C(C)(C)C)cc2NC(=O)Nc2ccc(OCCN3CCOCC3)c3ccccc23)cc1", "viability", 111),
    ("O=C(NOCC1CC1)c1ccc(F)c(F)c1Nc1ccc(I)cc1Cl", "viability", 97.9),
]

Query block: Recorded viability for "CN1CC[C@H](c2c(O)cc(O)c3c(=O)cc(-c4ccccc4Cl)oc23)[C@H](O)C1" , please?
Result block: 103

Query block: Entry "C#Cc1cccc(Nc2ncnc3cc(OCCOC)c(OCCOC)cc23)c1" please
Result block: 101

Query block: And for "COc1c(C)c2c(c(O)c1C/C=C(\C)CCC(=O)OCCN1CCOCC1)C(=O)OC2" ?
Result block: 108

This collection of values is drawn from PubChem BioAssay.
